Recorded GI50 for the following compounds
tested on: SNB-19 CNS; experiment: NCI tumour cell line growth inhibition, 48 h

Here is how some compounds turned out for GI50.
{"COMPOUND": "[Co+2].[O-]c1ccccc1C=NCc1ccccc1.[O-]c1ccccc1C=NCc1ccccc1", "GI50": "59.4 µM"}
{"COMPOUND": "OCC#Cc1ccccc1C#CCCCCCCC#Cc1ccccc1C#CCO", "GI50": "18.6 µM"}
{"COMPOUND": "CC(C)CCC[C@@H](C)[C@H]1CCC2C3=CCn4c(=O)ccc(=O)n4C3CC[C@@]21C (some centres undefined)", "GI50": "1.59 µM"}

query: Kindly indicate its recorded GI50. Item: CCN(CC)CCOc1nc2c3ccc(Cl)cc3nn2c2ccccc12
result: 3.28 µM
